biological target: human PDE2A1 (Homo sapiens); construct: GST; purchased BPS Bioscience (San Diego, Calif.) 60020; host or cells: insect cells; assay: IMAP FP PDE assay, human PDE2A1; format: biochemical; details: Lab B; read-out: Human PDE2 Ki (nM) Lab B
observation-type: Ki (nM)

- Cc1nc2c(c(CF)nn2C(C)c2ccc(OC(F)(F)F)c(F)c2)c(=O)[nH]1 (single isomer, unassigned) [Example 216]: 36
- Cc1nc2c(c(CO)nn2C(C)c2ccc(OC(F)F)c(F)c2)c(=O)[nH]1 (single isomer, unassigned) [Example 113]: 3
- Cc1nc2c(c(CO)nn2C(C)c2ccc(C(F)(F)F)c(C)c2)c(=O)[nH]1 (single isomer, unassigned) [Example 107]: 4.5
- CC(c1ccc(C(F)(F)F)cc1)n1nc(C(F)F)c2c(=O)[nH]c(C3CC3)nc21 (single isomer, unassigned) [Example 192]: 3.4
- Cc1nc2c(c(CO)nn2C(C)c2ccc(C(F)(F)F)c(I)c2)c(=O)[nH]1 (single isomer, unassigned) [Example 139]: 5.6
- Cc1nc2c(c(CF)nn2C(C)c2ccc(S(F)(F)(F)(F)F)cc2)c(=O)[nH]1 (single isomer, unassigned): 2
- Cc1nc2c(c(CO)nn2C(C)c2ccc(OC(F)F)cc2F)c(=O)[nH]1 (single isomer, unassigned) [Example 118]: 323
- Cc1nc2c(c(Br)nn2C(C)c2ccc(C(F)(F)F)cc2)c(=O)[nH]1 (single isomer, unassigned) [Example 324]: 465

I = COCc1nc2c(c(CF)nn2C(C)c2ccc(C(F)(F)F)cc2)c(=O)[nH]1 (centres unmarked)
II = CC1CCC(Cc2nc3c(c(CO)nn3C(C)c3ccc(C(F)(F)F)cc3)c(=O)[nH]2)O1 (racemic)
III = Cc1nn(C(C)c2ccc(C(F)(F)F)cc2)c2nc(Cc3cccc(O)c3)[nH]c(=O)c12 (centres unmarked)
IV = Cc1nc2c(c(CO)nn2C(c2ccc(OC(F)(F)F)cc2)C(C)C)c(=O)[nH]1 (single isomer, unassigned) [Example 85]
Prompt line: List the 4 entries from lowest Ki to highest Ki value. # list labels per requested ordering
Response line: IV, I, III, II

###

molecular target: human PDE2A1 (Homo sapiens, UniProt O00408); construct: GST; purchased BPS Bioscience (San Diego, Calif.) 60020; host or cells: insect cells; assay: IMAP FP PDE assay, human PDE2A1; type: biochemical; details: Lab B; read-out: Human PDE2 Ki (nM) Lab B
Sequence (O00408 1-920 isoform O00408-2): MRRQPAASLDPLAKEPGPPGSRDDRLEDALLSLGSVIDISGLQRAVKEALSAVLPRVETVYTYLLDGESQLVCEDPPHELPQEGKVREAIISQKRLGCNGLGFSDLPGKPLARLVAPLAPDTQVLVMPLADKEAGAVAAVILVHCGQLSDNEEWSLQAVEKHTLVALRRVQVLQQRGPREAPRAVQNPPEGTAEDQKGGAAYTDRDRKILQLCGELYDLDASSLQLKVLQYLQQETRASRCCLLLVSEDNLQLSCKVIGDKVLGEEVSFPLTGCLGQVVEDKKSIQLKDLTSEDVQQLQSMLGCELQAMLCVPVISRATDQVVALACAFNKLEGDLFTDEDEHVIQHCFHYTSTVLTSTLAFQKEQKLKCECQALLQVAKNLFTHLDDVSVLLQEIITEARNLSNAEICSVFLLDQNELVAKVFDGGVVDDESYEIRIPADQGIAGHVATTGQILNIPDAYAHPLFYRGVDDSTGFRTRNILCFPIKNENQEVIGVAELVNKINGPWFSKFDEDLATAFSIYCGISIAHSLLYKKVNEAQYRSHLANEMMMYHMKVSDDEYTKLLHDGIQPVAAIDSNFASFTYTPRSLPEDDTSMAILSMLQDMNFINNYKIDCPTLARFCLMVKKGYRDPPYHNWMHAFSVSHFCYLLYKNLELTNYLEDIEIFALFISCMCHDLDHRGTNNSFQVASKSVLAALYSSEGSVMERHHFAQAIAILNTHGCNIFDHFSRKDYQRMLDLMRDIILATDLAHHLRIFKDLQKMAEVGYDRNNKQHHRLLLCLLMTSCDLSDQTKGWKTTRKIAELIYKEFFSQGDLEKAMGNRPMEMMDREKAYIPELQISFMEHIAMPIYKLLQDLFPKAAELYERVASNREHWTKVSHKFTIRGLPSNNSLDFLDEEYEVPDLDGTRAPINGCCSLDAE
observation-type: Ki (nM)

* Cc1nc2c(c(C(F)F)nn2C(c2ccc(OC(F)(F)F)c(F)c2)C2CC2)c(=O)[nH]1 (centres unmarked) [Example 193] | 1.8
* Cc1nc2c(c(CC(C)O)nn2C(C)c2ccc(C(F)(F)F)cc2)c(=O)[nH]1 (single isomer, unassigned) [Example 243] | 808
* CC(c1ccc(C(F)(F)F)cc1)n1nc(-c2nnco2)c2c(=O)[nH]c(CC3CC3)nc21 (single isomer, unassigned) [Example 341] | 191
* Cc1nc2c(c(CF)nn2C(c2ccc(C(F)(F)F)cc2)C(C)C)c(=O)[nH]1 (single isomer, unassigned) [Example 212] | 43
* Cc1nc2c(c(CO)nn2[C@@H](C)c2ccc(OC(F)(F)F)cc2)c(=O)[nH]1 [Example 158] | 3.1

I = Cc1nc2c(c(CF)nn2C(c2ccc(C(F)(F)F)cc2)C2CC2)c(=O)[nH]1 (centres unmarked) [Example 231]
II = Cc1nc2c(c(CC(C)O)nn2C(C)c2ccc(C(F)(F)F)cc2)c(=O)[nH]1 (single isomer, unassigned) [Example 246]
Prompt line: Param metric = Ki; output whichever of I , II has the minimum value. Answer with the label corresponding to your selection.
Response line: I
